read-out: Interferon-gamma inducible Protein 10 (IP10), CXCL10 (gene 3627); experiment: BSK_BE3C_IP10: BioMAP Diversity Plus: BE3C Assay for Interferon-gamma inducible Protein 10 (IP10) Biomarker Activity (AID 2283034); settings: primary human bronchial epithelial cells; actives raise or lower the signal
Active and inactive are the calls of the source. Rule for the calls: active = hit-call score of the fitted dose curve at least 0.9, where 1 is the maximum; inactive = score below 0.9.
Outcome codes: 1.0 (active), 0.0 (inactive)

• C=CC(=O)OCC(Br)CBr (stereo not drawn) = 1.0
• C=CCOc1c(Br)cc(Br)cc1Br = 1.0
• COCc1c(C(C)C)nc(C(C)C)c(/C=C/[C@@H](O)C[C@@H](O)CC(=O)O)c1-c1ccc(F)cc1 = 0.0
• CCOc1nc(F)cc2nc(S(=O)(=O)Nc3c(Cl)cccc3C(=O)OC)nn12 = 0.0
• O=Nc1ccc(O)cc1 = 0.0
• CCCCCCCCc1ccc(Nc2ccc(CCCCCCCC)cc2)cc1 = 0.0
• CCO[Si](CCCN=C=O)(OCC)OCC = 0.0
• CCCCC(CC)COC(=O)c1ccccc1O (stereo not drawn) = 0.0

----------
biological target: CCAAT/enhancer-binding protein beta (Homo sapiens); assay: ATG_C_EBP_CIS: Attagene CIS-FACTORIAL HepG2 Assay for human CCAAT/Enhancer Binding Protein (C/EBP) beta (AID 2282927); settings: HepG2 Attagene cis-factorial transcription factor reporter; actives raise or lower the signal
Calls of active or inactive are those of the source. The calls were made as follows: active = hit-call score of the fitted dose curve at least 0.9, where 1 is the maximum; inactive = score below 0.9.
Outcomes: active, inactive

* OC1CCCC1 | inactive
* CC(=O)[C@H]1[C@H](C#N)C[C@H]2[C@@H]3CC=C4C[C@@H](O)CC[C@]4(C)[C@H]3CC[C@@]21C | inactive
* CCCCCCCCCCCCCCCC[n+]1ccccc1 | active
* CCCCCCCCCCOS(=O)(=O)O | inactive
* c1ccc2c(c1)ccc1cc3c(ccc4ccccc43)cc12 | inactive
* Cc1cc(C)c(C)cc1C | inactive
* C=C(C)C(=O)OCCOc1ccccc1 | inactive
* CC1=NN(c2cc(S(=O)(=O)O)ccc2Cl)C(=O)C1N=Nc1ccccc1 (configuration not stated) | inactive
* CCc1c(C(=O)O)c(=O)cnn1-c1ccc(Cl)cc1 | inactive
* C#CC1(O)CC[C@H]2[C@@H]3CCC4=CCCC[C@@H]4[C@H]3CC[C@@]21C (some centres not stated) | inactive
* CCCCC(CC)COC(=O)c1ccccc1 (configuration not stated) | inactive
* CC(C)(Oc1ccc(C2CC2(Cl)Cl)cc1)C(=O)O (configuration not stated) | inactive

----------
read-out: Low-density lipoprotein receptor (LDLR), LDLR (gene 3949); assay: BSK_CASM3C_LDLR: BioMAP Diversity Plus: CASM3C Assay for Low-density lipoprotein receptor (LDLR) Biomarker Activity (AID 2283045); settings: primary human coronary artery smooth muscle cells; actives raise or lower the signal;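 note: LDLR protein level on the cell surface quantified by ELISA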
The source made the active and inactive calls. The calls were made as follows: active = hit-call score of the fitted dose curve at least 0.9, where 1 is the maximum; inactive = score below 0.9.
Metric: outcome

* C=CCOCC(O)CCl (configuration not stated) | inactive
* CO[Si](OC)(OC)c1ccccc1 | inactive
* CN1C(=O)N(C)C(O)C1O (configuration not stated) | inactive
* CCCCNc1ccc(NCCCC)c2c1C(=O)c1ccccc1C2=O | inactive
* N#[N+]c1ccc2c(S(=O)(=O)[O-])cccc2c1O | inactive
* O=C1CCCN1CCO | inactive
* CCO[Si](CCCN=C=O)(OCC)OCC | inactive

----------
test: ATG_CMV_CIS: Attagene CIS-FACTORIAL HepG2 Assay for human CMV (Internal Marker) (AID 2282928); conditions: HepG2 CMV promoter reporter, transcription factor profiling; actives raise or lower the signal;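 note: endpoint acts as a background internal control marker rather than a target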
Activity calls are given as the source filed them. Rule for the calls: active = hit-call score of the fitted dose curve at least 0.9, where 1 is the maximum; inactive = score below 0.9.
Labels: class 1 = active, class 0 = inactive

* O=C(O)c1cc2ccccc2nc1C(=O)O | class 0
* COC(F)(F)C(F)(C(F)(F)F)C(F)(F)F | class 0
* CCC(=O)Oc1ccc(/C(CC)=C(\CC)c2ccc(OC(=O)CC)cc2)cc1 | class 0
* CCCCCCCCCCOS(=O)(=O)O | class 0
* CC(=O)NS(=O)(=O)c1ccc(N)cc1 | class 0
* c1cc(N(CC2CO2)CC2CO2)ccc1OCC1CO1 (centres undefined) | class 1
* CCCOC(=O)CCCCC(=O)OCCC | class 0
* N=c1ccn2c(n1)O[C@H]1[C@H](O)[C@@H](CO)O[C@H]12 | class 0
* CC(=O)Oc1ccc(C(C)=O)cc1 | class 0
* OC1CCCC1 | class 0
* CC(=O)c1ccc[nH]1 | class 0
* O=C(O)CC(C(=O)O)C(CC(=O)O)C(=O)O (centres undefined) | class 0
* O=C1CCCC1 | class 0
* COC(=O)c1ccccc1OC | class 0

----------
Assay: ATG_TA_CIS: Attagene CIS-FACTORIAL HepG2 Assay for human TA Basal Promoter (AID 2282964)
Details: HepG2 Attagene CIS-factorial TA basal promoter reporter; actives raise or lower the signal
Experimental: ATG_CIS is a cell-based, multiplexed-readout assay that uses HepG2, a human liver cell line, with measurements taken at 24 hours after chemical dosing in a 24-well plate.ATG_TA_CIS is one of 52 assay component(s) measured or calculated from the ATG_CIS assay. […] This assay endpoint, ATG_TA_CIS, was analyzed with bidirectional fitting relative to DMSO as the negative control and baseline of activity. […]
The source made the active and inactive calls. The calls were made as follows: active = hit-call score of the fitted dose curve at least 0.9, where 1 is the maximum; inactive = score below 0.9.
Possible outcomes: active, inactive

- c1ccc2c(c1)ccc1cc3c(ccc4ccccc43)cc12: inactive
- c1ccc2c(c1)ccc1ncccc12: inactive
- CCCCNc1ccc(NCCCC)c2c1C(=O)c1ccccc1C2=O: inactive
- OCCCS: inactive
- CC(C)CC(O)Cc1ccccc1 (stereo not drawn): inactive
- CCCCC(CC)COC(=O)c1ccccc1O (stereo not drawn): inactive
- CC(C)(C)c1n[nH]c(=O)n(N)c1=O: inactive
- CC(=O)OCc1ccco1: inactive
- C=C[C@](C)(O)CC[C@@H]1[C@@]2(C)CCCC(C)(C)[C@@H]2CC[C@@]1(C)O: inactive
- O=c1cc(-c2ccccc2)oc2ccccc12: active
- FC(F)=C(F)OC(F)(F)C(F)(F)C(F)(F)F: inactive
- O=C1OC(=O)c2cc(Oc3ccc4c(c3)C(=O)OC4=O)ccc21: inactive
- O=C1CCCC(=O)O1: inactive
- C=C(C)C(=O)OCCO: inactive
- O=C(O)Cc1c(Cl)ccc(Cl)c1Cl: inactive
- O=C(/C=C/C=C/c1ccc2c(c1)OCO2)N1CCCCC1: active
- COc1ccc(NC(C)=O)cc1N: inactive
- S=C(NC1CCCCC1)NC1CCCCC1: inactive
- O=C(c1ccccc1)C1CCC1: inactive
- Cc1ccc(N/N=c2\c(=O)cc/c(=N/Nc3ccc(S(=O)(=O)O)cc3)c2=O)c(C)c1: inactive
- COc1c2ccoc2cc2oc(=O)ccc12: inactive
- CNC(=S)NN: inactive
- C=C(C)C(=O)OCC(C)C: inactive
- CCC(=O)Oc1ccc(/C(CC)=C(\CC)c2ccc(OC(=O)CC)cc2)cc1: active
- C[Si](C)(C)O[Si](O)(O)O: inactive
- CCCCC(CC)COC(=O)c1ccccc1 (stereo not drawn): inactive
- CC1(C)O[C@@H]2C[C@H]3[C@@H]4C[C@H](F)C5=CC(=O)C=C[C@]5(C)[C@@]4(F)[C@@H](O)C[C@]3(C)[C@]2(C(=O)CO)O1: inactive
- CC(=O)Nc1nnc(S(N)(=O)=O)s1: inactive

----------
target: Estrogen receptor (Homo sapiens); test: CCTE_Deisenroth_AIME_384WELL_LUC_Shift: CCTE's 384-well Estrogen Receptor Transactivation Assay with AIME metabolic competence data shift (ERTA luciferase; difference in metabolism positive and negative), Deisenroth Lab (AID 2284041);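 note: shift is response with S9 minus without S9 so positive means metabolism raised ER signal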
The source made the active and inactive calls. Rule for the calls: active = hit-call score of the fitted dose curve at least 0.9, where 1 is the maximum; inactive = score below 0.9.
Metric: AC50

• Cc1ccc(C(C)c2ccc(C)c(C)c2)cc1C = 0.413 nM (active)
• CO[Si](OC)(OC)c1ccccc1 = inactive
• CCOC(=O)CC = inactive

----------
experiment: ATG_GLI_CIS: Attagene CIS-FACTORIAL HepG2 Assay for human Zinc Finger Protein GLI1 (AID 2282945); conditions: HepG2, Attagene cis-factorial reporter mRNA, GLI element; actives raise or lower the signal
Active and inactive are the calls of the source. Rule for the calls: active = hit-call score of the fitted dose curve at least 0.9, where 1 is the maximum; inactive = score below 0.9.
Metric: outcome

• C#CC1(O)CC[C@H]2[C@@H]3CCC4=CCCC[C@@H]4[C@H]3CC[C@@]21C (stereo partly drawn) = inactive
• O=c1[nH]c(=O)c2[nH]c(=O)[nH]c2[nH]1 = inactive
• Cc1cc(=O)n(-c2ccccc2)n1C = inactive
• CC1OC1C1CCC2(C)OC2C1 (stereo not drawn) = inactive
• CC(C)(C)c1ccc(OC(=O)c2ccccc2O)cc1 = inactive
• CC1(C)O[C@@H]2C[C@H]3[C@@H]4C[C@H](F)C5=CC(=O)CC[C@]5(C)[C@H]4[C@@H](O)C[C@]3(C)[C@]2(C(=O)CO)O1 = inactive
• O=C1c2cccc(O)c2C(=O)c2c(O)cc(CO)cc21 = inactive
• Cc1cccc(N)n1 = inactive
• CC(CC=O)CCCC(C)(C)O (stereo not drawn) = inactive
• NC(=O)C1CO1 (stereo not drawn) = inactive
• [Cl][Nd]([Cl])[Cl] = inactive
• N#[N+]c1ccc2c(S(=O)(=O)[O-])cccc2c1O = inactive
• C=CC(=O)NC(C)(C)CS(=O)(=O)O = inactive
